assay.remarks: Inhibition of MEK1/ERK (MAP kinase kinase) in cascade assay
measured.attribute: IC50

# IC50 (molecule: CCNC(=O)Nc1nc2nc(NCCCCN(CC)CC)ncc2cc1-c1c(Cl)cccc1Cl ) is > 5 µM

====

measured.on: Platelet-derived growth factor receptor beta (Mus musculus, UniProt P05622)
Sequence (P05622 whole entry): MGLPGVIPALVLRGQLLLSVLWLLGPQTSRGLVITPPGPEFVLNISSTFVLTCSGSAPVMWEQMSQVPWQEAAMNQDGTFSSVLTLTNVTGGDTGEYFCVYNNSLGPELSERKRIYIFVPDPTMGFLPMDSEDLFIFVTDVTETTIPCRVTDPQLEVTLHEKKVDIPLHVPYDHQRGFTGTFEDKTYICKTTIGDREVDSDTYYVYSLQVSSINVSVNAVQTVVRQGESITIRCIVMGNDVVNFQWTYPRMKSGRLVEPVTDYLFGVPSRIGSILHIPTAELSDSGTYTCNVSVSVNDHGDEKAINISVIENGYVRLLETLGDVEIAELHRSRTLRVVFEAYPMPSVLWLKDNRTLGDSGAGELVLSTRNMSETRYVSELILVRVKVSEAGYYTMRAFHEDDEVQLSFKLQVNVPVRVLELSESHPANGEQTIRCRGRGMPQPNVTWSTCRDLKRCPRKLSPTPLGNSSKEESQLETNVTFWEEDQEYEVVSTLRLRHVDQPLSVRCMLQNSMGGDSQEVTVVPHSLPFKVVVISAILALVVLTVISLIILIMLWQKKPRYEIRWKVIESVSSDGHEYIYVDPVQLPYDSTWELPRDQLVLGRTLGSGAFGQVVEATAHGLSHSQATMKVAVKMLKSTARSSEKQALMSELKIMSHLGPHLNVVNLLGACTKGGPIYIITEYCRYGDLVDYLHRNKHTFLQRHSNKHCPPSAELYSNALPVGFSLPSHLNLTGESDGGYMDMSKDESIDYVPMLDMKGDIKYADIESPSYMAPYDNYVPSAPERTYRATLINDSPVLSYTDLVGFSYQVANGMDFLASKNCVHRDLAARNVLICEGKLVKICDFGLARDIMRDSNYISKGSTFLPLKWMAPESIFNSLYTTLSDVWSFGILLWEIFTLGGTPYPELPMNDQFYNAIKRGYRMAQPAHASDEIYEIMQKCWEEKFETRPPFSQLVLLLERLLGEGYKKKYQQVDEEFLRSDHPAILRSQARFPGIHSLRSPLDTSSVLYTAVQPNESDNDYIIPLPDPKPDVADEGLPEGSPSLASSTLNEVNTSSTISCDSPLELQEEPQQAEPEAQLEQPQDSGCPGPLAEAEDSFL
assay.remarks: Ability to prevent phosphorylation of isolated mouse PDGF receptor beta
measured.attribute: pIC50
Worth noting: pIC50 values are minus log10 of concentrations stated in mol/L.

Example cases with answers are listed next.
| record.smiles | measured.attribute | reported.measurement |
| --- | --- | --- |
| Cc1ccc(NC(=O)Nc2nc3nc(NCCCN4CCN(C)CC4)ncc3cc2-c2c(Cl)cccc2Cl)cc1 | pIC50 | 6.08 |
| CN1CCN(CCCNc2ncc3cc(-c4c(Cl)cccc4Cl)c(NC(=S)Nc4ccccc4)nc3n2)CC1 | pIC50 | 5.66 |
| CN1CCN(CCCNc2ncc3cc(-c4c(Cl)cccc4Cl)c(NC(=O)Nc4ccc(Br)cc4)nc3n2)CC1 | pIC50 | 5.82 |
| CN(C)CC(C)(C)CNc1ncc2cc(-c3c(Cl)cccc3Cl)c(NC(=O)NC(C)(C)C)nc2n1 | pIC50 | 5.49 |

Measured pIC50 for this entry CN1CCN(CCCNc2ncc3cc(-c4c(Cl)cccc4Cl)c(N=C(N)Nc4ccccc4)nc3n2)CC1 on Platelet-derived growth factor receptor beta (Mus musculus, UniProt P05622): 4.43

Measured pIC50 for this entry CCNC(=O)Nc1nc2nc(NCCCN(CC)CC)ncc2cc1-c1c(Cl)cccc1Cl on Platelet-derived growth factor receptor beta (Mus musculus, UniProt P05622): 5.89

====

Let's go through some recorded pIC50 values for Proto-oncogene tyrosine-protein kinase Src (Gallus gallus) together.
Worth noting: pIC50 values are minus log10 of concentrations stated in mol/L.

| record.smiles | measured.attribute | reported.measurement |
| --- | --- | --- |
| CC(C)(C)NC(=O)Nc1nc2nc(N)ncc2cc1-c1c(Br)cccc1Br | pIC50 | 6.68 |

# pIC50 (compound: Cc1ccc(NC(=O)Nc2nc3nc(NCCCN4CCN(C)CC4)ncc3cc2-c2c(Cl)cccc2Cl)cc1 ) is 7.44

# pIC50 (compound: CCN(CC)CCCNc1ncc2cc(-c3c(C)cccc3C)c(NC(=O)NC(C)(C)C)nc2n1 ) is 7.01

# pIC50 (compound: Nc1ncc2cc(-c3c(Cl)cccc3Cl)c(N)nc2n1 ) is 6.68

# pIC50 (compound: CCNC(=S)Nc1nc2nc(NCCCN(CC)CC)ncc2cc1-c1c(Cl)cccc1Cl ) is 6.89

====

Let's go through some recorded log10(IC50) values for Proto-oncogene tyrosine-protein kinase Src (Gallus gallus) together.
Remember, log10 of IC50, in nM.

Measured log10(IC50) for this entry CN1CCN(CCCNc2ncc3cc(-c4c(Cl)cccc4Cl)c(NC(=O)Nc4ccc(Cl)cc4)nc3n2)CC1 on Proto-oncogene tyrosine-protein kinase Src (Gallus gallus): 1.60

Measured log10(IC50) for this entry CN1CCN(CCCNc2ncc3cc(-c4c(Cl)cccc4Cl)c(NC(=O)Nc4ccc(Cl)c(Cl)c4)nc3n2)CC1 on Proto-oncogene tyrosine-protein kinase Src (Gallus gallus): 1.96

Measured log10(IC50) for this entry COc1ccccc1NC(=O)Nc1nc2nc(NCCCN3CCN(C)CC3)ncc2cc1-c1c(Cl)cccc1Cl on Proto-oncogene tyrosine-protein kinase Src (Gallus gallus): 1.20

Measured log10(IC50) for this entry Cc1cccc(C)c1-c1cc2cnc(N)nc2nc1N on Proto-oncogene tyrosine-protein kinase Src (Gallus gallus): 2.63

Measured log10(IC50) for this entry CN1CCN(CCCNc2ncc3cc(-c4c(Cl)cccc4Cl)c(NC(=O)Cc4ccccc4)nc3n2)CC1 on Proto-oncogene tyrosine-protein kinase Src (Gallus gallus): 3.52

Measured log10(IC50) for this entry CCCCCCCCNC(=O)Nc1nc2nc(NCCCN3CCN(C)CC3)ncc2cc1-c1c(Cl)cccc1Cl on Proto-oncogene tyrosine-protein kinase Src (Gallus gallus): 2.08
